System: Plasmodium berghei
method-summary: Screen against P. berghei liver stage (PbLuc), transformed with Luciferase, at 10uM
Format: functional, HepG2
measurement-context: tested at 10 uM
Hit rate of the full screen: of about 69,000 compounds, about 8,600 (12%) showed an effect of 50% or more. This excerpt belongs to a sample that is enriched for strong results.
# INHIBITION per record follows

>  <compound>
N#CCCN(Cc1cccnc1)C(=O)c1ccc(OCC2CC2)cc1

>  <uom>
%

>  <INHIBITION>
-92.2

$$$$
>  <compound>
CCCc1cnc(C)nc1N1CCC(Cc2cccc(C(N)=O)c2)C1 (configuration not stated)

>  <uom>
%

>  <INHIBITION>
52.2

$$$$
>  <compound>
CCCc1cnc(C)nc1N1CCC(Cc2ccc(CO)cc2)C1 (configuration not stated)

>  <uom>
%

>  <INHIBITION>
75

$$$$
>  <compound>
CCCc1cnc(C)nc1N1CCC2(CCCO2)CC1

>  <uom>
%

>  <INHIBITION>
13.1

$$$$
>  <compound>
N#CCCN(Cc1ccco1)C(=O)c1ccc(OCC2CC2)cc1

>  <uom>
%

>  <INHIBITION>
69.5

$$$$
>  <compound>
CCc1noc(C(C)Sc2nnc(C3CC3)n2CC(N)=O)n1 (configuration not stated)

>  <uom>
%

>  <INHIBITION>
29

$$$$
>  <compound>
CCCc1cnc(C)nc1N1CCC(F)(F)CC1

>  <uom>
%

>  <INHIBITION>
-40.6

$$$$
>  <compound>
CCCc1cnc(C)nc1N1CCC(Cn2cc(CN(C)C)nn2)CC1

>  <uom>
%

>  <INHIBITION>
-16.1

$$$$
>  <compound>
CCc1cnc(C)nc1N1CCC(Cc2cccc(C(=O)O)c2)C1 (configuration not stated)

>  <uom>
%

>  <INHIBITION>
47.2

$$$$
>  <compound>
CO[C@H]1CCN(S(=O)(=O)c2cn(C)cn2)[C@H]1Cc1ccccc1

>  <uom>
%

>  <INHIBITION>
-8.85

$$$$
>  <compound>
CC(=O)NCC(=O)N1Cc2c(-c3cccc(C)c3)nc(N)nc2C1C (configuration not stated)

>  <uom>
%

>  <INHIBITION>
34

$$$$
>  <compound>
CCCc1cc(N2CCC(Cc3cccc(C(N)=O)c3)C2)nc(C)n1 (configuration not stated)

>  <uom>
%

>  <INHIBITION>
5.67

$$$$

====

Tested on: Plasmodium berghei
method-summary: Screen against P. berghei liver stage (PbLuc), transformed with Luciferase, at 10uM
Format: functional, HepG2
measurement-context: tested at 10 uM
Screen size: about 69,000 compounds; about 8,600 (12%) showed an effect of 50% or more. This excerpt belongs to a sample that is enriched for strong results.
# INHIBITION per record follows
measure: INHIBITION (%)

>  <compound>
OC[C@H]1CN(C2Cc3ccccc3C2)C[C@H]1CN1CCC(O)CC1

>  <uom>
%

>  <reported-result>
29.4

$$$$
>  <compound>
N#CCCN(CCC#N)C(=O)c1cccc(N2CCNC2=O)c1

>  <uom>
%

>  <reported-result>
46.1

$$$$
>  <compound>
Cc1nc(-c2nnc[nH]2)sc1C(=O)N1CCCC1Cn1cccn1 (stereo not given)

>  <uom>
%

>  <reported-result>
-1.45

$$$$
>  <compound>
COC(=O)c1cccc(C(=O)N(CCC#N)CC(C)(C)C)c1

>  <uom>
%

>  <reported-result>
68.6

$$$$
>  <compound>
O=C(Cc1c(F)cccc1Cl)NC1CCCCNC1=O (stereo not given)

>  <uom>
%

>  <reported-result>
-1.85

$$$$
>  <compound>
CC(C)(C)CN(CCC#N)C(=O)c1cccc(CN2CCCC2)c1

>  <uom>
%

>  <reported-result>
-38.2

$$$$
>  <compound>
NC(=O)CSCC(=O)NC1(c2cccc(Br)c2)CC1

>  <uom>
%

>  <reported-result>
8.99

$$$$
>  <compound>
COc1cc(Br)cc(CNC2CCCNC2=O)c1O (stereo not given)

>  <uom>
%

>  <reported-result>
60

$$$$
>  <compound>
CSCC(=O)NC1(c2cccc(Cl)c2)CC1

>  <uom>
%

>  <reported-result>
8.41

$$$$
>  <compound>
FC(F)(F)c1cccc(OC2CCN(Cc3ccccn3)CC2)c1

>  <uom>
%

>  <reported-result>
40.7

$$$$
>  <compound>
CC(C)(C)CN(CCC#N)C(=O)Nc1cccc(N2CCNC2=O)c1

>  <uom>
%

>  <reported-result>
-45.2

$$$$
>  <compound>
CSCC(=O)N1CCCN(c2ccccc2C)CC1

>  <uom>
%

>  <reported-result>
84.5

$$$$
>  <compound>
CCOCC(=O)NC1(c2cccc(Cl)c2)CC1

>  <uom>
%

>  <reported-result>
57.3

$$$$
>  <compound>
Cc1cnccc1N1CCCN(C(=O)CCCn2ccnc2C)CC1

>  <uom>
%

>  <reported-result>
-2.48

$$$$
>  <compound>
FC(F)CN1CCC(NCc2ccc(-n3cccn3)nc2)CC1

>  <uom>
%

>  <reported-result>
48.2

$$$$
>  <compound>
CCN(CC)Cc1nnc2sc(C(C)Oc3ccccc3)nn12 (stereo not given)

>  <uom>
%

>  <reported-result>
-2.93

$$$$
>  <compound>
Cc1ccc(OCc2occc2C(=O)N2CCCCC(N)C2)cc1 (stereo not given)

>  <uom>
%

>  <reported-result>
11.8

$$$$
>  <compound>
COCCN(CCOC)C(=O)c1cccc(Cn2nc(C)cc2C)c1

>  <uom>
%

>  <reported-result>
11.1

$$$$
>  <compound>
CC(=O)Nc1ccc(-c2cn(CCn3c(C)cc(C)nc3=O)nn2)cc1

>  <uom>
%

>  <reported-result>
-31.1

$$$$
>  <compound>
N#Cc1ccccc1CN1C[C@H]2CC[C@@H](C1)N(CC1CCC1)C2=O

>  <uom>
%

>  <reported-result>
42.6

$$$$
>  <compound>
O=C(NCCN1CCOCC1)N(CCCO)C1CCCc2ccccc21 (stereo not given)

>  <uom>
%

>  <reported-result>
18.3

$$$$
>  <compound>
COc1c(C)cnc(CN2CCCC(Cn3nc(C)nc3C)C2)c1C (stereo not given)

>  <uom>
%

>  <reported-result>
-1.14

$$$$
>  <compound>
COc1cc(Br)c(CNC2CCCNC2=O)cc1OC (stereo not given)

>  <uom>
%

>  <reported-result>
36.5

$$$$
>  <compound>
O=C(CCNS(=O)(=O)c1ccc(F)c(F)c1)NCc1ccoc1

>  <uom>
%

>  <reported-result>
35.4

$$$$
>  <compound>
CC(C)(C)CN(CCC#N)C(=O)c1cccc(CC#N)c1

>  <uom>
%

>  <reported-result>
80

$$$$

These entries and their values trace back to ChEMBL document CHEMBL4513216.
